test system: HSC2 (primary human Schwann cells); test: drug sensitivity score (DSS, CellTiter-Glo viability, 72 h) (DSS (dimensionless)); higher = more sensitive; extreme values may be limits of the assay
MEASUREMENT_NAME: drug sensitivity score

* CCC1=C[C@@H]2CN(C1)Cc1c([nH]c3ccccc13)[C@@](C(=O)OC)(c1cc3c(cc1OC)N(C)[C@H]1[C@@](O)(C(=O)OC)[C@H](OC(C)=O)[C@]4(CC)C=CCN5CC[C@]31[C@@H]54)C2 [Vinorelbine] (max concentration tested 10000 nM) | 20.8
* CC(=O)O[C@@]12CO[C@@H]1C[C@H](O)[C@@]1(C)C(=O)[C@H](O)C3=C(C)[C@@H](OC(=O)[C@H](O)[C@@H](NC(=O)OC(C)(C)C)c4ccccc4)C[C@@](O)([C@@H](OC(=O)c4ccccc4)[C@H]21)C3(C)C [Docetaxel] (max concentration tested 1000 nM) | 22.3
